// data source = the kinase profiling compilation of Christmann-Franck et al. (2016)

# studySystem: PAK7 (human) (UniProt Q9P286)
# Sequence (Q9P286 whole entry, looked up): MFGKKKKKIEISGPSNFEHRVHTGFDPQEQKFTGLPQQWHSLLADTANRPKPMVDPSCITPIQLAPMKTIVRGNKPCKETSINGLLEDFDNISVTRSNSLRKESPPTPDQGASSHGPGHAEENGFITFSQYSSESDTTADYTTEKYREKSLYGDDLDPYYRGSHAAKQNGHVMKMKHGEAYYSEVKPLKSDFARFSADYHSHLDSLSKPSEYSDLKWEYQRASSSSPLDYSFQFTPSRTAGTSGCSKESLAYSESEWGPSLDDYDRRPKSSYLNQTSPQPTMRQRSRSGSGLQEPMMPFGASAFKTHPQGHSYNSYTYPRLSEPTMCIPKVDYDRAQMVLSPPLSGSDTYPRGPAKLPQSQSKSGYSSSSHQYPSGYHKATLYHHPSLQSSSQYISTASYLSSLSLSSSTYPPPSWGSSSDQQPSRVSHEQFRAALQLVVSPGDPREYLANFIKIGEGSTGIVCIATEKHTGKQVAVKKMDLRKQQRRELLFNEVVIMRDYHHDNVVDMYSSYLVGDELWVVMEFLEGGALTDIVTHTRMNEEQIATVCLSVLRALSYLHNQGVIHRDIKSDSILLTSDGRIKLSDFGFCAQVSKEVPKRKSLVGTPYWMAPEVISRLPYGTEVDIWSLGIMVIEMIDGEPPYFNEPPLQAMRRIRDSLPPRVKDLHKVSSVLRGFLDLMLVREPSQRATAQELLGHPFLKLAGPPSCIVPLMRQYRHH
# assayRemarks: radiometric filter-binding kinase assay, Kinase HotSpot
# settings: compound 0.5 µM; ATP 10 µM
For each entry below, report its residual activity value.
A number alone suffices; assume %.

Task: Give the measured residual activity of `O=C(O)c1ccc2c3c1cccc3c(=O)n1c3ccccc3nc21` .
Output: 98.7

Task: Another molecule: `CCOc1cc2ncnc(Nc3cccc(Br)c3)c2cc1OCC`
Output: 99.1

Task: Another molecule: `CCCCc1c(-c2ccc(O)cc2)[nH]c2nccnc12`
Output: 82.9

Task: Another molecule: `O=c1c(-c2ccc(F)cc2)c(-c2ccncc2)[nH]n1-c1ccc(Cl)cc1`
Output: 86.3

Task: Another molecule: `O=C1NC(=O)c2cc(Nc3ccc(F)cc3)c(Nc3ccc(F)cc3)cc21`
Output: 96.4

Task: Another molecule: `O=c1[nH]c2ccccc2n1C1CCN(Cc2ccc(-c3nc4cc5[nH]cnc5cc4nc3-c3ccccc3)cc2)CC1`
Output: 110

Task: Another molecule: `COc1cc2c(Nc3ccc(Br)cc3F)ncnc2cc1OCC1CCN(C)CC1`
Output: 93.5

Task: Another molecule: `Cc1cc(Nc2nc(-c3ccccc3)nc3ccccc23)n[nH]1`
Output: 53.1

###

For each entry below, report its residual activity value.
# studySystem: ULK1 (human) (UniProt O75385)
# Sequence (O75385 whole entry, looked up): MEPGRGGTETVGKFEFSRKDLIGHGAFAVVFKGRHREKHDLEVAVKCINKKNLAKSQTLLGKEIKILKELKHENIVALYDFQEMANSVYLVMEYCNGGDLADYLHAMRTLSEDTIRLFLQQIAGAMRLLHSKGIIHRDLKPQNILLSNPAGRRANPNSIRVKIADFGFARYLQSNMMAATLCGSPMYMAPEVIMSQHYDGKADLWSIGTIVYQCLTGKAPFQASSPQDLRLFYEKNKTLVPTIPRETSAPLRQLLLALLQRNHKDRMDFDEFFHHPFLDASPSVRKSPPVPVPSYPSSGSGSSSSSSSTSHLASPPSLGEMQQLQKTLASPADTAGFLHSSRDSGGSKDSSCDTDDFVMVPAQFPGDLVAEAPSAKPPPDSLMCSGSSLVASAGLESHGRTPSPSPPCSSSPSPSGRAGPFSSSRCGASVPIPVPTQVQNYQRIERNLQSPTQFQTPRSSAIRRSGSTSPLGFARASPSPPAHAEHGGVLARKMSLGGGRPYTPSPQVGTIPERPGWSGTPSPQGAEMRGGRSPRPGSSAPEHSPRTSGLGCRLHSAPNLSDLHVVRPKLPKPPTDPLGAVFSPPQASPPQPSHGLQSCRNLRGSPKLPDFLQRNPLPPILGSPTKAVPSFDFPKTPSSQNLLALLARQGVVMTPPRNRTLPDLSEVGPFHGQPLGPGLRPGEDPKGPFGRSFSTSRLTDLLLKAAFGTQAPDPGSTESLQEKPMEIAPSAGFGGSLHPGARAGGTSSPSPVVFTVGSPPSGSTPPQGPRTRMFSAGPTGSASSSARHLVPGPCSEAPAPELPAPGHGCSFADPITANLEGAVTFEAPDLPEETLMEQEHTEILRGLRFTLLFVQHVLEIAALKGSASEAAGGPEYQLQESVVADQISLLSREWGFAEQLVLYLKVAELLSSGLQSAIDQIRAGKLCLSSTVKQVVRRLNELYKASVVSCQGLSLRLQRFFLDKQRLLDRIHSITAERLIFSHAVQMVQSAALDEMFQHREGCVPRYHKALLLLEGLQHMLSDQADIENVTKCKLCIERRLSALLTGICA
# assayRemarks: radiometric filter-binding kinase assay, Kinase HotSpot
# settings: compound 0.5 µM; ATP 10 µM

Task: # value lookup — system ULK1 (human) (UniProt O75385), readout residual activity, item `FC(F)(F)c1ccc(/C=C/c2nc(COc3ccc(CCCCn4ccnn4)cc3)co2)cc1`
Output: 87.2%

Task: Another compound: `O=C1NC(=O)c2c1c1c3ccccc3[nH]c1c1[nH]c3cc(Br)ccc3c21`
Output: 99.2%

Task: Another compound: `N#Cc1c(NC(=O)c2cccc3ccccc23)sc2c1CCCC2`
Output: 99.8%

###

# studySystem: ITK (human) (UniProt Q08881)
# Sequence (Q08881 whole entry, looked up): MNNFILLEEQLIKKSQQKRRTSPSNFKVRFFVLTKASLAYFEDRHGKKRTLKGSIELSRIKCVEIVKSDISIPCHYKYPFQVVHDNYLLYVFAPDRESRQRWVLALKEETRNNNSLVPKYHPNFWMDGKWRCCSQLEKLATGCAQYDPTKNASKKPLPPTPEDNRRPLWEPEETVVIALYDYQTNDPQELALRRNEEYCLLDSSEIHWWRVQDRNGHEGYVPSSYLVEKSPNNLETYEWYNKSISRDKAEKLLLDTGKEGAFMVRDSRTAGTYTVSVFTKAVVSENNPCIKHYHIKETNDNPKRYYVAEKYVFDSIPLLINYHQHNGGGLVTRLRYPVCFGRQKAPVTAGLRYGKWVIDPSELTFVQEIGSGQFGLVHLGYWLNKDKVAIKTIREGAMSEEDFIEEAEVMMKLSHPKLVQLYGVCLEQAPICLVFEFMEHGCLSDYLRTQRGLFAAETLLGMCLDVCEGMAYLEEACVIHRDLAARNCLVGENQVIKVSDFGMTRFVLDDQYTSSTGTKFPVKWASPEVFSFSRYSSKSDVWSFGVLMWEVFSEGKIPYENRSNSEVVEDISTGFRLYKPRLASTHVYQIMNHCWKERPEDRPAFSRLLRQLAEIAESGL
# assayRemarks: radiometric filter-binding kinase assay, Kinase HotSpot
# settings: compound 0.5 µM; ATP 10 µM
For each entry below, report its residual activity value.
A number alone suffices; assume %.

Task: Give the measured residual activity of `CCCCc1c(-c2ccc(O)cc2)[nH]c2nccnc12` .
Output: 104

Task: Another compound: `COc1cc2c(Nc3ccc(Br)cc3F)ncnc2cc1OCC1CCN(C)CC1`
Output: 101

Task: Another compound: `CCc1nc(-c2ccc(OC)cc2)[nH]c1-c1ccncc1`
Output: 97.4

Task: Another compound: `O=C1NC(=O)c2c1c1c3ccccc3[nH]c1c1[nH]c3cc(Br)ccc3c21`
Output: 84.1

Task: Another compound: `COc1cc2ncnc(Nc3ccc(O)c(Br)c3)c2cc1OC`
Output: 92.8

Task: Another compound: `N#C/C(=C1/Nc2ccccc2S1)c1ccnc(NCCc2cccnc2)n1`
Output: 98.8

Task: Another compound: `COc1cccc(-c2cc(=O)c3ccccc3o2)c1N`
Output: 96.5

###

# studySystem: PRKD2 (human)
# assayRemarks: radiometric filter-binding kinase assay, Kinase HotSpot
# settings: compound 0.5 µM; ATP 10 µM
residual activity vs 90%: at or above is class 1, below is class 0.

Task: Exam item: decide whether the reported residual activity for `O=C(c1ccccc1)c1ccc(N2CCOCC2)cc1O` is at least 90%.
Output: class 1

Task: Another compound: `O=C1NC(=O)c2cc(Nc3ccc(F)cc3)c(Nc3ccc(F)cc3)cc21`
Output: class 0

Task: Another compound: `COc1cc2c(cc1OC)-c1[nH]nc(Nc3cccc(F)c3)c1C2`
Output: class 1

Task: Another compound: `O=c1c(-c2ccc(F)cc2)c(-c2ccncc2)[nH]n1-c1ccc(Cl)cc1`
Output: class 0

Task: Another compound: `c1ccc(-c2cnc(Nc3ccc(OCCN4CCCC4)cc3)s2)cc1`
Output: class 0

###

# studySystem: PKN1 (human) (UniProt Q16512)
# Sequence (Q16512 whole entry, looked up): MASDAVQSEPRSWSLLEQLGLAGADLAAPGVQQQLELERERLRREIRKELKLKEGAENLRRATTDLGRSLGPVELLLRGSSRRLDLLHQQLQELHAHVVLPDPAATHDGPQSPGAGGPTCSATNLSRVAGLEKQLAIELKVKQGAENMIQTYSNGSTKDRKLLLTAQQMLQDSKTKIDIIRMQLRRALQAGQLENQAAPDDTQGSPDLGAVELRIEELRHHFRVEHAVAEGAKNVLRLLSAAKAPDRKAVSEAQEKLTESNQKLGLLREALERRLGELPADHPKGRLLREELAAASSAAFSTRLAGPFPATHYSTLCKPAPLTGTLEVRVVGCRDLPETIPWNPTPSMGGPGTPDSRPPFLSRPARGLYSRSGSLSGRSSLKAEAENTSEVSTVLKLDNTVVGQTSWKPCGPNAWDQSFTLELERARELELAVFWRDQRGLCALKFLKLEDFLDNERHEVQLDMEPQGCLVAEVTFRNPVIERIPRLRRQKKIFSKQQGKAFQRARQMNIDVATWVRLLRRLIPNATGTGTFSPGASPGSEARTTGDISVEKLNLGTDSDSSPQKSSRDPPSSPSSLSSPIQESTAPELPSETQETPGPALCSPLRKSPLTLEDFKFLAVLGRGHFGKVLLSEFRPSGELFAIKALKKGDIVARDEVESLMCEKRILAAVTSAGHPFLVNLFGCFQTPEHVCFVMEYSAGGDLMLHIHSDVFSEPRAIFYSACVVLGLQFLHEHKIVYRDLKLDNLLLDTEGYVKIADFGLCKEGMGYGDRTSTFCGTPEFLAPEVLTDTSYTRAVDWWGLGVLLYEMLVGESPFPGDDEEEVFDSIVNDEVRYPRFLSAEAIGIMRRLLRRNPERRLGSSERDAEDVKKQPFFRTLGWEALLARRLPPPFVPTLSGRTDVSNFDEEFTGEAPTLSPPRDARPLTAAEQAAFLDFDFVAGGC
# assayRemarks: radiometric filter-binding kinase assay, Kinase HotSpot
# settings: compound 0.5 µM; ATP 10 µM
metric: residual activity (%)
A number alone suffices; assume %.

Task: Give the measured residual activity of `Cn1cc(/C=C2\C(=O)Nc3ccc(S(N)(=O)=O)cc32)c2ccccc21` .
Output: 68.9

Task: Another compound: `O=c1cc(N2CCOCC2)oc2c(-c3ccccc3)cccc12`
Output: 109

Task: Another compound: `Nc1ncnc2c1cnn2-c1ccccc1`
Output: 98.6

Task: Another compound: `FC(F)(F)c1ccc(/C=C/c2nc(COc3ccc(CCCCn4ccnn4)cc3)co2)cc1`
Output: 97

Task: Another compound: `N#Cc1c(NC(=O)c2cccc3ccccc23)sc2c1CCCC2`
Output: 108

###

# studySystem: MAPK10 (human) (UniProt P53779)
# Sequence (P53779 whole entry, looked up): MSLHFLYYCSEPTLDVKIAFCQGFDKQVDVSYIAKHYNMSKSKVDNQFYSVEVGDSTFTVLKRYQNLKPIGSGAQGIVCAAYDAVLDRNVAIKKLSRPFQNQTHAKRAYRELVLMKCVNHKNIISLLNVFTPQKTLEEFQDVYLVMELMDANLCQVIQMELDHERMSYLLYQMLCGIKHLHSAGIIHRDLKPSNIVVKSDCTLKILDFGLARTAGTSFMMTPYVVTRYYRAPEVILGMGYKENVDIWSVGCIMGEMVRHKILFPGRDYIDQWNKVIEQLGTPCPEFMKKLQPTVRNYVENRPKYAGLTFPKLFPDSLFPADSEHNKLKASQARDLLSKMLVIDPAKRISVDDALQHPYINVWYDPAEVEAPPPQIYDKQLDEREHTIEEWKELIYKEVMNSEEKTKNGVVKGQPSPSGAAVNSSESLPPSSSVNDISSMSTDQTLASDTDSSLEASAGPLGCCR
# assayRemarks: radiometric filter-binding kinase assay, Kinase HotSpot
# settings: compound 0.5 µM; ATP 10 µM
metric: residual activity (%)
A number alone suffices; assume %.

Task: # value lookup — system MAPK10 (human) (UniProt P53779), readout residual activity, item `O=C(O)c1ccc2c3c1cccc3c(=O)n1c3ccccc3nc21`
Output: 108

Task: Another compound: `Cn1cc(/C=C2\C(=O)Nc3ccc(S(N)(=O)=O)cc32)c2ccccc21`
Output: 93.1

Task: Another compound: `Cc1cc(Nc2nc(-c3ccccc3)nc3ccccc23)n[nH]1`
Output: 88.7

Task: Another compound: `O=c1c(-c2ccc(F)cc2)c(-c2ccncc2)[nH]n1-c1ccc(Cl)cc1`
Output: 97.1

Task: Another compound: `COc1cc2c(N3CCN(C(=O)Nc4ccc(OC(C)C)cc4)CC3)ncnc2cc1OCCCN1CCCCC1`
Output: 94.6

Task: Another compound: `N#Cc1c(NC(=O)c2cccc3ccccc23)sc2c1CCCC2`
Output: 112

###

For each entry below, report its residual activity value.
# studySystem: STK4 (human)
# assayRemarks: radiometric filter-binding kinase assay, Kinase HotSpot
# settings: compound 0.5 µM; ATP 10 µM
A number alone suffices; assume %.

Task: Give the measured residual activity of `O=c1cc(N2CCOCC2)oc2c(-c3ccccc3)cccc12` .
Output: 87.8

Task: Another compound: `N#C/C(=C1/Nc2ccccc2S1)c1ccnc(NCCc2cccnc2)n1`
Output: 92.2

Task: Another compound: `O=S(=O)(NCCNC/C=C/c1ccc(Br)cc1)c1cccc2cnccc12`
Output: 92.6

Task: Another compound: `COc1cc2ncnc(Nc3ccc(O)c(Br)c3)c2cc1OC`
Output: 90

Task: Another compound: `COc1cccc(-c2cc(=O)c3ccccc3o2)c1N`
Output: 92.1

Task: Another compound: `COc1cc2c(cc1OC)-c1[nH]nc(Nc3cccc(F)c3)c1C2`
Output: 91.5

###

# studySystem: UniProtKB Q16288
# Sequence (Q16288 whole entry, looked up): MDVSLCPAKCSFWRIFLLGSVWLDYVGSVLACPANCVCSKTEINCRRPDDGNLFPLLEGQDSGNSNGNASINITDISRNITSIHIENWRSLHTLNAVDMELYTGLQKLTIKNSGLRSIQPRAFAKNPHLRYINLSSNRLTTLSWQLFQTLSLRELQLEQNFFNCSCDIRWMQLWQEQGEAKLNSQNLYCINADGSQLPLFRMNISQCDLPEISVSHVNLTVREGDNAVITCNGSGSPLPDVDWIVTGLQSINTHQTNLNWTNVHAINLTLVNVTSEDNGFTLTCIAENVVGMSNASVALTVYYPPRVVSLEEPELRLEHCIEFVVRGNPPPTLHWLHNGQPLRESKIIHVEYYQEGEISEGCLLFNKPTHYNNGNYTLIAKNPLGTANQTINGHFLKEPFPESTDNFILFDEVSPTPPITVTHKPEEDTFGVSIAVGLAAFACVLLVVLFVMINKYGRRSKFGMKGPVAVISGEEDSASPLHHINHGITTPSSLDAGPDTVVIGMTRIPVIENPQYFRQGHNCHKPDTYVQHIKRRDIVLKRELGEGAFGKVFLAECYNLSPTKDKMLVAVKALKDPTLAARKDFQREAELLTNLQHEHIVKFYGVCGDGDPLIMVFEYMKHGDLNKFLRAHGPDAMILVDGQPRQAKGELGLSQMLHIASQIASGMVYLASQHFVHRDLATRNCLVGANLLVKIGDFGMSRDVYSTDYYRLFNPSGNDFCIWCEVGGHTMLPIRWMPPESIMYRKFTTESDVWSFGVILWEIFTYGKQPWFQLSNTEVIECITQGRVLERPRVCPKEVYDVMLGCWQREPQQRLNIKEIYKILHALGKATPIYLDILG
# assayRemarks: radiometric filter-binding kinase assay, Kinase HotSpot
# settings: compound 0.5 µM; ATP 10 µM
For each entry below, report its residual activity value.
A number alone suffices; assume %.

Task: Give the measured residual activity of `O=c1[nH]c2ccccc2n1C1CCN(Cc2ccc(-c3nc4cc5[nH]cnc5cc4nc3-c3ccccc3)cc2)CC1` .
Output: 116

Task: Another compound: `O=C1NC(=O)c2cc(Nc3ccc(F)cc3)c(Nc3ccc(F)cc3)cc21`
Output: 95.6

Task: Another compound: `Nc1ncnc2c1cnn2-c1ccccc1`
Output: 93.6

Task: Another compound: `O=c1cc(N2CCOCC2)oc2c(-c3ccccc3)cccc12`
Output: 95.9

Task: Another compound: `COc1cccc(-c2cc(=O)c3ccccc3o2)c1N`
Output: 99.3

Task: Another compound: `Cn1cc(/C=C2\C(=O)Nc3ccc(S(N)(=O)=O)cc32)c2ccccc21`
Output: 1.18

Task: Another compound: `O=C(O)c1ccc2c3c1cccc3c(=O)n1c3ccccc3nc21`
Output: 67.1

Task: Another compound: `CCc1nc(-c2ccc(OC)cc2)[nH]c1-c1ccncc1`
Output: 103

Task: Another compound: `N#CCCc1ccc2c(c1)-c1[nH]c3ccc([N+](=O)[O-])cc3c1CC(=O)N2`
Output: 61.2

Task: Another compound: `CCOc1cc2ncnc(Nc3cccc(Br)c3)c2cc1OCC`
Output: 91.5

Task: Another compound: `O=c1c(-c2ccc(F)cc2)c(-c2ccncc2)[nH]n1-c1ccc(Cl)cc1`
Output: 99.2

Task: Another compound: `COc1cc2c(Nc3ccc(Br)cc3F)ncnc2cc1OCC1CCN(C)CC1`
Output: 72.2

###

# studySystem: NEK1 (human)
# assayRemarks: radiometric filter-binding kinase assay, Kinase HotSpot
# settings: compound 0.5 µM; ATP 10 µM
metric: residual activity (%)
A number alone suffices; assume %.

Task: # value lookup — system NEK1 (human), readout residual activity, item `COc1cc2c(Nc3ccc(Br)cc3F)ncnc2cc1OCC1CCN(C)CC1`
Output: 123

Task: Another compound: `COc1cc2c(cc1OC)-c1[nH]nc(Nc3cccc(F)c3)c1C2`
Output: 93

Task: Another compound: `O=S(=O)(NCCNC/C=C/c1ccc(Br)cc1)c1cccc2cnccc12`
Output: 94.4

Task: Another compound: `Cn1cc(/C=C2\C(=O)Nc3ccc(S(N)(=O)=O)cc32)c2ccccc21`
Output: 68.5
